Here, each record is paired with measured t1/2 data.
- Target Of Assay: T1, HLA-A*0201 (human)
- T1 construct: also called HLA-A2.1; HLA A2.1
- Assay Explanation: iTopia off-rate;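 also: Half-life of peptide complexes with plate-bound HLA-A2, peptides loaded 18 h at 21 C, washed, then held at 37 C over several time points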
No unit in the answer, please; the number alone is enough.

Worked cases, answers included:
| Binder | t1/2 |
| --- | --- |
| VTMEEEYGL [cdr2 217-225 VTMEEEYGL] | 6.5 |
| SLLEEMFLT [cdr2 289-297 SLLEEMFLT] | 13.9 |

Problem: Reported t1/2, binder ECLQTNIDH [cdr2 120-128 ECLQTNIDH] : ____
Solution: 5.4

Problem: Reported t1/2, binder TMEEEYGLV [cdr2 218-226 TMEEEYGLV] : ____
Solution: 1.27

Problem: Reported t1/2, binder AAAKDLTGV [cdr2 384-392 AAAKDLTGV] : ____
Solution: 6.5

Problem: Reported t1/2, binder TMLQAQLSL [cdr2 203-211 TMLQAQLSL] : ____
Solution: 9.8

Problem: Reported t1/2, binder ASGWELASV [cdr2 400-408 ASGWELASV] : ____
Solution: 0.5

Problem: Reported t1/2, binder TVTMLQAQL [cdr2 201-209 TVTMLQAQL] : ____
Solution: 0.6
